Target: PIM-1 (Homo sapiens, UniProt P11309)
Sequence (P11309 whole entry, species assumed): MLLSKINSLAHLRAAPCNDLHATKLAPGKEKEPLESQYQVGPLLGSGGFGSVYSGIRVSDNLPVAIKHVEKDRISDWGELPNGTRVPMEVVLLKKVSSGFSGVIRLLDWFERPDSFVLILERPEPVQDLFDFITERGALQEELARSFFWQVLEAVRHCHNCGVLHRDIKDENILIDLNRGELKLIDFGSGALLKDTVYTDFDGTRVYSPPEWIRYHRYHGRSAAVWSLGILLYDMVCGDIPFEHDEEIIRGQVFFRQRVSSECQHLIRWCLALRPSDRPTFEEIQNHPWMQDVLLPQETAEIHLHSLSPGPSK
pIC50: −log10 of the molar value. Where a name gives a salt, the structure may show the parent alone.
Mark condition met for reported pIC50 of 9 or greater; mark condition not met for anything smaller.

Illustrative cases are given below, each with its answer.
compound: Cc1cc(F)cc2ccc(-c3nnc4ccc([C@@H](N5CC[C@H](N)C5)C(F)(F)F)cn34)nc12 [Example 184, dihydrochloride]
test.system: PIM-1 (Homo sapiens, UniProt P11309)
cat: condition met

compound: NC[C@@H]1CCN(C(c2ccc3nnc(-c4ccc5cccc(OCC6CC6)c5n4)n3c2)C(F)(F)F)C1 (stereo partly drawn) [Example 24, dihydrochloride]
test.system: PIM-1 (Homo sapiens, UniProt P11309)
cat: condition not met

compound: Cn1cc(-c2ccc3ccc(-c4nnc5ccc([C@H](N6CCC(C)(O)C6)C(F)(F)F)cn45)nc3c2)cn1 (single isomer, unassigned; diastereomer 2) [Example 201, hydrochloride]
test.system: PIM-1 (Homo sapiens, UniProt P11309)
cat: condition not met

Lookup: Kindly determine if pIC50 recorded for CC(C)Oc1cccc2ccc(-c3nnc4ccc([C@H](N5CCC(C)(O)C5)C(F)(F)F)cn34)nc12 (single isomer, unassigned; diastereomer 2) is above or exactly 9.
Found: condition not met

Lookup: State whether the measured pIC50 reaches 9, counting equality as reaching it, for N[C@@H]1CCN(C(c2ccc3nnc(-c4ccc5cccc(OCC6CC6)c5n4)n3c2)C(F)(F)F)C1 (stereo partly drawn) [Example 16, dihydrochloride]
Found: condition met

----------
Molecular target: GST-tagged recombinant full-length human Pim-2 (Homo sapiens, UniProt Q9P1W9)
Construct: GST-tagged recombinant full-length human Pim-2; GST
Sequence (Q9P1W9 whole entry): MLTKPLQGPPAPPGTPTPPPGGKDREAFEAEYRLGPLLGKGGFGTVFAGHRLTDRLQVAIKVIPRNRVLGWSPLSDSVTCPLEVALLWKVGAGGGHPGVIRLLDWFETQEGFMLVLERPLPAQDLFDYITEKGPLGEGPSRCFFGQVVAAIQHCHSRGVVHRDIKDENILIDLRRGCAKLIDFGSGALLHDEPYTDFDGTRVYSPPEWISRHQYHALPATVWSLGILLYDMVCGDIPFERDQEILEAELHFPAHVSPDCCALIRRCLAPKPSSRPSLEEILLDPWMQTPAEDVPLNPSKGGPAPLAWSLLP
Test: PIM-2 Assay (as Example A)
Format: biochemical
Conditions: averaged IC50; 4 μM ATP, 1.0 μM PIM2tide, 1.5 nM Pim-2
Counter-ions that a name gives are not always drawn.
recorded.metric: IC50 (nM)
Dear colleague, please return just the value in nM, with no unit written.

Solved entries:
compound: N[C@H]1CCN([C@H](c2ccc3nnc(-c4ccc5cccc(OCC6CC6)c5n4)n3c2)C(F)(F)F)C1 (single isomer, unassigned) [Example 11, dihydrochloride]
test.system: GST-tagged recombinant full-length human Pim-2 (Homo sapiens, UniProt Q9P1W9)
IC50 (nM): 75
--
compound: CN[C@H]1CCN([C@H](c2ccc3nnc(-c4ccc5cccc(OCC6CC6)c5n4)n3c2)C(F)(F)F)C1 [Example 43, dihydrochloride]
test.system: GST-tagged recombinant full-length human Pim-2 (Homo sapiens, UniProt Q9P1W9)
IC50 (nM): 65
--
compound: CO[C@H](C)COc1ccc2ccc(-c3nnc4ccc([C@@H](N5CC[C@H](N)C5)C(F)(F)F)cn34)nc2c1 [Example 277, dihydrochloride]
test.system: GST-tagged recombinant full-length human Pim-2 (Homo sapiens, UniProt Q9P1W9)
IC50 (nM): 231
--
compound: CN[C@H]1CCN(C(c2ccc3nnc(-c4ccc5cccc(OCC6CC6)c5n4)n3c2)C(F)(F)F)C1 (stereo partly drawn) [Example 20, dihydrochloride]
test.system: GST-tagged recombinant full-length human Pim-2 (Homo sapiens, UniProt Q9P1W9)
IC50 (nM): 131
--
compound: N[C@H]1CCN([C@@H](c2ccc3nnc(-c4ccc5ccc(C6CC6)cc5n4)n3c2)C(F)(F)F)C1 (single isomer, unassigned) [Example 12]
test.system: GST-tagged recombinant full-length human Pim-2 (Homo sapiens, UniProt Q9P1W9)
IC50 (nM): 51
--
compound: COC[C@H](C)Oc1cccc2ccc(-c3nnc4ccc([C@@H](N5CC[C@H](N)C5)C(F)(F)F)cn34)nc12 [Example 141, dihydrochloride]
test.system: GST-tagged recombinant full-length human Pim-2 (Homo sapiens, UniProt Q9P1W9)
IC50 (nM): 90

IC50 measured on COCCc1ccc2ccc(-c3nnc4ccc([C@H](N5CC[C@](C)(N)C5)C(F)(F)F)cn34)nc2c1 [Example 300, dihydrochloride] = 64

Input N[C@@H]1CN([C@H](c2ccc3nnc(-c4ccc5cc(F)cc(C6CC6)c5n4)n3c2)C(F)(F)F)C[C@H]1O [Example 181, dihydrochloride] . Output IC50: 96

compound CC(C)NC(=O)c1ccc2ccc(-c3nnc4ccc(C(N5CC[C@H](N)C5)C(F)(F)F)cn34)nc2c1 (stereo partly drawn) [Example 30, dihydrochloride] , IC50 observed: 63

Value of IC50 reported for the compound CC(C)(C)NC(=O)c1ccc2ccc(-c3nnc4ccc([C@@H](N5CC[C@H](N)C5)C(F)(F)F)cn34)nc2c1 [Example 46, dihydrochloride] is 33

IC50 in this record for COCC1(c2cccc3ccc(-c4nnc5ccc([C@@H](N6CC[C@H](N)C6)C(F)(F)F)cn45)nc23)CC1 [Example 112, dihydrochloride] : 21
